target system: Streptavidin (Streptomyces avidinii) (UniProt P22629)
Sequence (P22629 whole entry, looked up): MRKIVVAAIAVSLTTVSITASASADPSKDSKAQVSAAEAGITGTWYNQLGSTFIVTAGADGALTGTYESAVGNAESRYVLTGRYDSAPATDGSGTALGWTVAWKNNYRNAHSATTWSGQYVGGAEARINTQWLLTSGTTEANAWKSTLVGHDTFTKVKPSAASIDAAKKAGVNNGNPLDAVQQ
assay text: streptavidin binders on small-molecule microarray, primary screen, artefact control for SMM compound annotation, biophysical, 635/667 nm fluorescence (AID 1147);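 further: signal reflects streptavidin binding to arrayed compounds as a control protein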
particulars: streptavidin binding, higher = more signal

- compound: "COCCOC(=O)N1C(=O)[C@@]2(c3cc(C#CCCO)ccc31)[C@H](c1ccc(O)cc1)N1[C@H](c3ccccc3)[C@H](c3ccccc3)OC(=O)[C@H]1[C@@H]2C(=O)NC[C@H](O)c1ccccc1"
  composite z-score: -0.331
- compound: "CC(C)C[C@@H]1NC(=O)[C@@H]2C[C@H](C(=O)NCCCCCNC(=O)CS)[C@H](c3ccc(O)cc3)N2C1=O"
  composite z-score: -0.799
- compound: "O=C1O[C@H](c2ccccc2)[C@H](c2ccccc2)N2[C@H]1[C@@H](C(=O)N1CCCCCCC1)[C@]1(C(=O)Nc3ccc(C#CCCO)cc31)[C@H]2c1ccc(O)cc1"
  composite z-score: 3.86
- compound: "COCCCNC(=O)[C@@]1(Cc2ccccc2I)c2ccccc2C(=O)N(C2CCCCC2)[C@H]1c1ccc(CO)cc1"
  composite z-score: -0.0972
- compound: "C=CC[C@]1(C(N)=O)N=C(c2ccc(OCCCO)cc2)O[C@H]1c1ccccc1N=[N+]=[N-]"
  composite z-score: 0.489
- compound: "CC(C)(C)OC(=O)CC[C@@]1(C(N)=O)N=C(c2ccc(OCCCO)cc2)O[C@@H]1c1ccccc1CN=[N+]=[N-]"
  composite z-score: -0.0644
- compound: "CC(C)C(=C=CC[C@H](O)c1cccc(OCCO)c1)C[C@H](O)c1ccccn1"
  composite z-score: -0.502
- compound: "C=C(COC)C(=O)CC[C@H](OC(C)=O)c1ccccc1OCCO"
  composite z-score: -0.955
- compound: "COc1c(C)cc(-c2nc(-c3ccccc3)c3c(c2C)CO[Si]3(C(C)C)C(C)C)cc1C"
  composite z-score: -0.0316
- compound: "[N-]=[N+]=NCc1ccccc1[C@H]1OC(c2ccc(OCCCO)cc2)=N[C@@]1(CCS(=O)(=O)c1ccccc1)C(=O)O"
  composite z-score: 0.729
- compound: "COc1ccc([Si](C)(C)[C@@H]2[C@@H](CC(=O)N(CCO)Cc3ccccc3)O[C@]3(C(=O)N(Cc4cccc(I)c4)c4ccccc43)[C@H]2C)cc1"
  composite z-score: -0.196
- compound: "COCCCNC(=O)[C@@]1(CCC(=O)OC(C)(C)C)N=C(c2ccc(OCCCO)cc2)O[C@H]1c1ccccc1"
  composite z-score: 0.471
- compound: "COc1ccc([Si](C)(C)[C@H]2[C@H](CC(=O)N3CCC[C@H]3CO)O[C@@]3(C(=O)N(C)c4ccccc43)[C@@H]2C)cc1"
  composite z-score: -0.28
- compound: "[N-]=[N+]=NCc1ccccc1C[C@]1(C(=O)N2CCCCC2)COC(c2ccc(OCCCO)cc2)=N1"
  composite z-score: 0.997
- compound: "CN1C(=O)C2C=CC(C(O)c3ccc(I)cc3)N(N(c3ccccc3)c3ccccc3)C2C1=O (stereo not given)"
  composite z-score: 0.609
- compound: "COC(=O)[C@@]1(Cc2ccc(F)cc2)[C@@H]2C(=CC(=O)[C@H]2CC(=O)C(=O)N2CCCC2)CN1C(=O)c1ccccc1"
  composite z-score: 0.696
- compound: "CC(C)N1C(=O)[C@@]2(Cc3ccccc31)c1ccccc1C(=O)N(Cc1ccccc1)[C@H]2c1ccc(CO)cc1"
  composite z-score: -0.439
- compound: "COCCCNC(=O)[C@@]1(Cc2ccccc2I)c2ccccc2C(=O)N(Cc2ccccc2OC)[C@H]1c1ccc(CO)cc1"
  composite z-score: -0.67
- compound: "C=CCNC(=O)[C@@H]1[C@H]2C(=O)O[C@H](c3ccccc3)[C@H](c3ccccc3)N2[C@H](c2ccc(OCCO)cc2)[C@@]12C(=O)N(C(=O)OCCOC)c1ccccc12"
  composite z-score: -0.154
- compound: "C=C(CCCC)/C(=C/C[C@@H](OC(C)=O)c1cccc(OCCO)c1)c1cc(C(=O)OC)ccc1OC"
  composite z-score: -0.697
- compound: "COc1ccc(CCNC(=O)[C@@H]2c3ccccc3C(=O)N(C(C)C)[C@H]2c2ccc(CO)cc2)cc1"
  composite z-score: -0.896
- compound: "CN1C(=O)C2C=CC(C(O)COCc3ccccc3)N(Nc3ccc([N+](=O)[O-])cc3[N+](=O)[O-])C2C1=O (stereo not given)"
  composite z-score: -0.387
- compound: "[N-]=[N+]=NCc1ccccc1[C@H]1OC(c2ccc(OCCCO)cc2)=N[C@@]1(Cc1ccccc1N=[N+]=[N-])C(=O)O"
  composite z-score: 1.55
- compound: "CCCC[C@@H](O)C1=C(C)Cn2c(=O)n(-c3ccccc3)c(=O)n2[C@H]1CO"
  composite z-score: -0.463
- compound: "CCCC1(C(=O)OC)C=C2C(=C(C(C)C)C(=O)C2C)CN1 (stereo not given)"
  composite z-score: -0.481
- compound: "COC(=O)Cn1c(C(=O)N(C)C)cc2c1C[C@H]1CN(C(=O)c3ccccc3)[C@@](Cc3ccccc3)(C(=O)OC)[C@@H]21"
  composite z-score: 0.822
- compound: "C=CC[C@H](OC(=O)Nc1ccc(SC)cc1)c1ccc(O)c(F)c1"
  composite z-score: -0.588
- compound: "CCOC(=O)C[C@H]1[C@H](OC(=O)Cc2ccc3c(c2)OCO3)[C@@H](NC(=O)CC(C)C)c2cc(OCCCO)ccc2N1C(=O)c1ccc2ccccc2n1"
  composite z-score: 0.23
- compound: "COC(=O)[C@@]1(Cc2ccccc2)[C@H]2c3cc(C(=O)N(C)C)n(Cc4nc5ccccc5[nH]4)c3C[C@H]2CN1C(=O)c1ccccc1"
  composite z-score: 1.26
- compound: "C[N+](C)(C)CCCC[C@@H]1NC(=O)[C@H]2C[C@@H](C(=O)NCCCCCN)[C@@H](c3ccc(O)cc3)N2C1=O"
  composite z-score: 2.29
